These measurements were taken from the supplement of paper PMC8728848.

In this section we review reported glycan array binding signal (z-score) values for a set of binders.
Target or test system: Kdn(a2-3)Gal(b1-4)Glc
Protocol notes: glycan array binding signal (z-score within array); higher = stronger binding
Settings: glycan notation: IUPAC condensed, linker removed
Many of the other results were omitted from the sample, so the strongest signals are more common in it than they were.

Binder | glycan array binding signal (z-score)
CVN (Nostoc ellipsosporum), P81180 (protein) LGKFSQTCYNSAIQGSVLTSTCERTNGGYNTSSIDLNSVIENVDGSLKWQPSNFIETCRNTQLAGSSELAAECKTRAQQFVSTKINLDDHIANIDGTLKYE | -0.296

Input: Find the recorded glycan array binding signal (z-score) belonging to rCnSL-proB (Clitocybe nebularis) (protein) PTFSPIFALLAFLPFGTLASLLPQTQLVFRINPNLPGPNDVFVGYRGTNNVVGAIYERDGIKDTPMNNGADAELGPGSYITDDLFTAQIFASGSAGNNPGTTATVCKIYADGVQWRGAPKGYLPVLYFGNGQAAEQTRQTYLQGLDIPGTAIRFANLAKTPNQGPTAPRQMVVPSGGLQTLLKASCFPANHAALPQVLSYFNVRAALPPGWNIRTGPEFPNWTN and report it.
Output: -1.27

Input: Another binder to check: LlpB (Pseudomonas fluorescens) (protein) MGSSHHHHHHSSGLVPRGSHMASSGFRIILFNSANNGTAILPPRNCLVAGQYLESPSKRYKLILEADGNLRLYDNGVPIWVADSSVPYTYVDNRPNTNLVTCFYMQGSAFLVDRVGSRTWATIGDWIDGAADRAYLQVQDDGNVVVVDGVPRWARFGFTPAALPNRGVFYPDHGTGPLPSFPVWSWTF
Output: 3.03

Input: Another binder to check: UDA (Urtica dioica), P11218 (protein) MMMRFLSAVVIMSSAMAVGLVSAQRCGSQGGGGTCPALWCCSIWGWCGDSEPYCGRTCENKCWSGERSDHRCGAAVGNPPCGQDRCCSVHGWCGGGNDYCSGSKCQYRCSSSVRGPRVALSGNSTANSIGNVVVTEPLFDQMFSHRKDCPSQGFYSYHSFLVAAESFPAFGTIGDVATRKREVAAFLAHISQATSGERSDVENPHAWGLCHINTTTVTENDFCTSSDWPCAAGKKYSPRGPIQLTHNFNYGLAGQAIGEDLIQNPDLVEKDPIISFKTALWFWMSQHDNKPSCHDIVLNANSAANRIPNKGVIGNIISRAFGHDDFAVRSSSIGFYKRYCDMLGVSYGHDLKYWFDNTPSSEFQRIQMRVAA
Output: -0.168

Input: Another binder to check: Gal 3C (Homo sapiens), P17931 (protein) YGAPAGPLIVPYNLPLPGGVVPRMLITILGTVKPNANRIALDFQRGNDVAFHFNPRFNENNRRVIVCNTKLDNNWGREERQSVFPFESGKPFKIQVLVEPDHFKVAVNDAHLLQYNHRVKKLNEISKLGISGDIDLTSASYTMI
Output: -0.237

Input: Another binder to check: Gal 4 (Homo sapiens), Q8K419 (protein) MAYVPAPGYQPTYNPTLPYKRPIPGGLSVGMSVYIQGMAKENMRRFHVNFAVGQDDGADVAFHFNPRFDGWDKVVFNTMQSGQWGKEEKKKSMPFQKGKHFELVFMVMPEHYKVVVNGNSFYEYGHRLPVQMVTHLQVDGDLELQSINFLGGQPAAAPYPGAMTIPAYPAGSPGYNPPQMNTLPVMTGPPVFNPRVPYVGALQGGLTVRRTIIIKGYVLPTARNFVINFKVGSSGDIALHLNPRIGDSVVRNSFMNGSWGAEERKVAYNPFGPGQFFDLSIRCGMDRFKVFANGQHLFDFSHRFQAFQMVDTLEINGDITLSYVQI
Output: -0.243
